tested on: FM-MEL-6; experiment: drug sensitivity score (DSS) (DSS (unitless, 0-50 scale)); higher = more sensitive (stronger viability inhibition); extreme values may be limits of the assay; conditions: 72 h; culture: 2D
Recorded Endpoint: drug sensitivity score

[in] Recorded drug sensitivity score of NC[C@@](O)(c1ccc(Cl)cc1)c1ccc(-c2cn[nH]c2)cc1 , please.
[out] 4

[in] # repeat for CCN(CC)CCCC(C)Nc1c2ccc(Cl)cc2nc2ccc(OC)cc12 (stereo unspecified)
[out] 14.2

[in] # repeat for Oc1ncnc2[nH]ncc12
[out] 0

[in] # repeat for CCOc1ccccc1-n1c(C(C)N2CCN(C(=O)COc3ccc(Cl)cc3)CC2)nc2ccccc2c1=O (stereo unspecified)
[out] 0

[in] # repeat for COc1ccc(-c2ccc3c(N4CCOC[C@@H]4C)nc(N4CCOC[C@@H]4C)nc3n2)cc1CO
[out] 17.3

[in] # repeat for CC(=O)N(O)CCCCCNC(=O)CCC(=O)N(O)CCCCCNC(=O)CCC(=O)N(O)CCCCCN
[out] 1.8

[in] # repeat for COc1cccc2c1C(=O)c1c(O)c3c(c(O)c1C2=O)C[C@@](O)(/C(CO)=N/NC(=O)CCCCCN1C(=O)C=CC1=O)C[C@@H]3O[C@H]1C[C@H](N)[C@H](O)[C@H](C)O1
[out] 8.6

[in] # repeat for COc1cc(NS(C)(=O)=O)ccc1Nc1c2ccccc2nc2ccccc12
[out] 5.5

[in] # repeat for CC(C)[C@@H](CS(=O)(=O)C(C)C)N1C(=O)[C@@](C)(CC(=O)O)C[C@H](c2cccc(Cl)c2)[C@H]1c1ccc(Cl)cc1
[out] 0

[in] # repeat for CN[C@@H]1C[C@H]2O[C@@](C)([C@@H]1OC)n1c3ccccc3c3c4c(c5c6ccccc6n2c5c31)C(=O)N[C@H]4O
[out] 14.5

[in] # repeat for CN(Cc1cnc2nc(N)nc(N)c2n1)c1ccc(C(=O)N[C@@H](CCC(=O)O)C(=O)O)cc1 [Methotrexate]
[out] 0

[in] # repeat for CC(C)NC(=O)COc1cccc(-c2nc(Nc3ccc4[nH]ncc4c3)c3ccccc3n2)c1
[out] 3

[in] # repeat for Cc1cc2c(C(=O)NC[C@H](C)c3ccccc3)c(O)c(O)cc2c(O)c1-c1c(C)cc2c(C(=O)NC[C@H](C)c3ccccc3)c(O)c(O)cc2c1O
[out] 5.6

[in] # repeat for CCCc1cc(C)[nH]c(=O)c1CNC(=O)c1cc(-c2ccnc(N3CCN(C)CC3)c2)cc2c1cnn2C(C)C
[out] 0

[in] # repeat for CCOC(=O)C1=CCCC[C@H]1S(=O)(=O)Nc1ccc(F)cc1Cl
[out] 0

[in] # repeat for COc1cc2nccc(Oc3ccc(NC(=O)Nc4cc(C)on4)c(Cl)c3)c2cc1OC
[out] 0.5
